Origin of measurements: PubChem BioAssay

Target: Alpha-2C adrenergic receptor (Homo sapiens) (UniProt P18825)
Sequence (P18825 whole entry, looked up): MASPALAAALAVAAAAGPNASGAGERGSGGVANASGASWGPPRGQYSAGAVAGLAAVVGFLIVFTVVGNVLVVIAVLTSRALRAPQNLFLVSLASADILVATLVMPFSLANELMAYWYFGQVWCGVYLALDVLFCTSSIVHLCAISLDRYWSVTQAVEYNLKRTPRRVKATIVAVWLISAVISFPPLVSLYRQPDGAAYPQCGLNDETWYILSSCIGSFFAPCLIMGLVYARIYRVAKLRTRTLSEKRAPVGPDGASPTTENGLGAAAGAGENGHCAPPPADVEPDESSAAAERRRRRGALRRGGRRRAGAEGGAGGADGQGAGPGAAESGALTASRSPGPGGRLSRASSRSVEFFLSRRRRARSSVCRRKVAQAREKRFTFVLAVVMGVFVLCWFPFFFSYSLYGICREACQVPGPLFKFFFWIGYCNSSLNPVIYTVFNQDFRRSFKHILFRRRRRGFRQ
Assay: compounds altering alpha2C-coupled GIRK flux – cell-based, HEK293 alpha2C/GIRK1/2, thallium flux, primary screen (AID 624);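 note: slope of fluorescence ratio to pre-addition baseline per second over 15 to 24 s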
Details: thallium flux BTC fluorescence, at 10 µM, actives lie on both sides
Would you mind labelling by slope? At or over 0.006 is class 1, under is class 0.

Hi team, for "COCCOC(=O)c1c(N)n(Cc2ccco2)c2nc3ccccc3nc12" , is the recorded slope at or above 0.006?
class 0

Hi team, for "O=c1[nH]c(=O)n(Cc2ccccc2)c(O)c1C=NCCN1CCNCC1" , is the recorded slope at or above 0.006?
class 1

Hi team, for CC(=O)C1C(=O)NC23CCCCC2C1c1ccccc1O3 (stereo not given) , is the recorded slope at or above 0.006?
class 1

Hi team, for c1ccc(C2CC3CC(c4ccco4)N2O3)cc1 (stereo not given) , is the recorded slope at or above 0.006?
class 0

Hi team, for "C[N+]1(C)CCN(c2ccccc2)CC1" , is the recorded slope at or above 0.006?
class 0

Hi team, for "O=C(c1ccncc1)C12CN3CN(CN(C3)C1)C2" , is the recorded slope at or above 0.006?
class 0

Hi team, for "CN(C)[C@@H]1C(=O)C(C(N)=O)=C(O)[C@@]2(O)C(=O)C3=C(O)c4c(O)cccc4[C@@](C)(O)[C@H]3C[C@@H]12" , is the recorded slope at or above 0.006?
class 0

Hi team, for "CC(=NCCCO)c1c(O)n(Cc2ccccc2)c(=O)[nH]c1=O" , is the recorded slope at or above 0.006?
class 0

Hi team, for "CCOc1ccccc1-n1c(O)c(C=Nc2ccc(N(CC)CC)cc2)c(=O)[nH]c1=O" , is the recorded slope at or above 0.006?
class 1

---

Biological target: Voltage-gated potassium channel subunit beta-2 (Rattus norvegicus) (UniProt P62483)
Sequence (P62483 whole entry, looked up): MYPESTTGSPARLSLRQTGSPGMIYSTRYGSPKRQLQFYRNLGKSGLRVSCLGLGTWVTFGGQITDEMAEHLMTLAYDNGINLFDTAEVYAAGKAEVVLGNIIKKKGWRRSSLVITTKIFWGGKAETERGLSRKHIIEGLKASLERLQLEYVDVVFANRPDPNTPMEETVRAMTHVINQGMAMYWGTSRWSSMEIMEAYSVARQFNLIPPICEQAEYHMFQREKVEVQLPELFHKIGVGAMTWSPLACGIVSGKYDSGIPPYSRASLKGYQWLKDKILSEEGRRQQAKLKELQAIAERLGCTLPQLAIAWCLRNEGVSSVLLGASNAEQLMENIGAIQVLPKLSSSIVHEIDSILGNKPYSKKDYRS
Assay: enhancers of rat Kvbeta2 NADPH turnover – biochemical, NADPH fluorescence, primary screen (AID 623);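 note: fluorescence intensity change per second fitted from 20 to 320 s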
Conditions: Recombinant KvBeta, NADPH fluorescence decrease slope, 10 min; at 10 µM; stronger effect = lower value
recorded-metric: NADPH fluorescence slope
Give a plain numeric answer without units written out.

Per the record, CN1CCN(C(=O)OC2c3nccnc3C(=O)N2c2ccc(Cl)cn2)CC1 (stereo not given) has NADPH fluorescence slope of -7.3e-05

Per the record, "Cc1c(N=Cc2c(O)n(Cc3ccco3)c(=O)[nH]c2=O)c(=O)n(-c2ccccc2)n1C" has NADPH fluorescence slope of -0.000124

Per the record, "CCN(CC)c1ccc(N=Cc2c(O)n(-c3cc(OC)ccc3OC)c(=O)[nH]c2=O)cc1" has NADPH fluorescence slope of -5.8e-05

Per the record, "COc1ccc(CN2CCN(C(=O)Cc3ccccc3)CC2)c(OC)c1" has NADPH fluorescence slope of 1.9e-05

Per the record, "CCOC(=O)C1=C(C)OC(N)=C(C(=O)OCC)[C@@]12C(=O)N(CC(N)=O)c1ccccc12" has NADPH fluorescence slope of -5.7e-05

Per the record, "CCNc1ccc(P(=S)(N(C)C)N(C)C)cc1" has NADPH fluorescence slope of -1.6e-05

Per the record, "C#C[C@]1(O)CC[C@H]2[C@@H]3CCC4=CC(=O)CC[C@]4(C)[C@H]3CC[C@@]21C" has NADPH fluorescence slope of -5.4e-05

Per the record, "O=c1[nH]c(=O)n(Cc2ccccc2)c(O)c1C=NCCN1CCOCC1" has NADPH fluorescence slope of -1.2e-06

Per the record, c1ccc(C2NCc3ccccc3-n3cccc32)cc1 (stereo not given) has NADPH fluorescence slope of -4e-05

Per the record, "O=c1[nH]c(=O)n(-c2cccc3ccccc23)c(O)c1C=NCCCn1ccnc1" has NADPH fluorescence slope of -2.1e-05

---

Assign inhibition of aggregation to each entry below.
Assay: reduction of polyQ htt aggregates in cells – imaging, exon1htt(103Q)mCFP cells, high-content imaging, primary screen (AID 483);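 note: compound exposure lasted 3 days before fixation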
Details: exon1htt(103Q)mCFP cell line, aggregate imaging, at 2 µM; stronger effect = higher value
The source made the active and inactive calls.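 How the source made its calls: active means visual image review flags a hit and inhibition of aggregation exceeds 20%; inconclusive means visual hit but inhibition at or below 20%; inactive means no hit on visual image review.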 Residues, ends and D or L forms follow the SMILES beside them.

Per the record, "CN1CCC(N(C)c2ncnc3ccc(Br)cc23)CC1" has inhibition of aggregation of 4.3% (inactive)

Per the record, "COc1ccc(CC[n+]2cc(/N=C(\C)[O-])on2)cc1OC" has inhibition of aggregation of -6% (inactive)

Per the record, "O=C(NCc1ccccn1)c1ccccc1Cl" has inhibition of aggregation of 2.9% (inactive)

Per the record, "NC(=O)OCCSc1nnc(-c2cccc(C(N)=S)c2)o1" has inhibition of aggregation of -7.4% (inactive)

Per the record, "COc1ccc(CCn2c(O)c(C=NCCCN(C)C)c(=O)[nH]c2=O)cc1OC" has inhibition of aggregation of 12.1% (inactive)

Per the record, CC(C)C[C@H](NC(=O)[C@@H]1CCCN1C(=O)[C@@H](N)Cc1ccc(O)cc1)C(=O)NCC(N)=O (H-YPLG-NH2) has inhibition of aggregation of -9.8% (inactive)

Per the record, "COc1ccc(OC)c(N2C(=O)NC(=O)C(CCc3ccncc3)(CCc3ccncc3)C2=O)c1" has inhibition of aggregation of -24.7% (inactive)

Per the record, CC(C)OCCCNC(=O)c1c(N)n(CC2CCCO2)c2nc3ccccc3nc12 (stereo not given) has inhibition of aggregation of -14.6% (inactive)

Per the record, "CCCCn1c(O)c(C(C)=NCCc2ccccc2)c(=O)[nH]c1=O" has inhibition of aggregation of 16.4% (inactive)

Per the record, C[N+]1(C)[C@@H]2CC(OC(=O)[C@H](CO)c3ccccc3)C[C@H]1[C@@H]1O[C@@H]12 (stereo not given in full) has inhibition of aggregation of 19% (inactive)

---

Assay: reduction of polyQ htt aggregates in cells – imaging, exon1htt(103Q)mCFP cells, high-content imaging, primary screen (AID 483);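 note: compound exposure lasted 3 days before fixation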;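 for nuclei count: percent of the per-plate median nuclei count of sample wells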
Conditions: exon1htt(103Q)mCFP cell line, aggregate imaging, at 2 µM; measured here: cell count, toxicity
Assign nuclei count to each entry below.
# value in %; strip the unit string

Per the record, "CC(C)(C)OC(=O)c1c(N)n(Cc2ccco2)c2nc3ccccc3nc12" has nuclei count of 81

Per the record, "Cn1c(C(=O)N2CCC3(CC2)OCCO3)cc2c(=O)n(C)c3ccccc3c21" has nuclei count of 104

Per the record, c1ccc(C2NCc3ccccc3-n3cccc32)cc1 (stereo unspecified) has nuclei count of 66.6

Per the record, CCOc1ccc(C2SCC(=O)Nc3c2c(=O)[nH]n3C2CCCCCC2)cc1 (stereo unspecified) has nuclei count of 88.4

Per the record, "CC(C)OCCCNC(=O)c1c(N)n(Cc2cccs2)c2nc3ccccc3nc12" has nuclei count of 90.9

Per the record, CCN1c2nc3c(C)cccn3c(=O)c2CC2(C(=O)N(C)C(=O)N(C)C2=O)C1C (stereo unspecified) has nuclei count of 100

---

Biological target: Voltage-gated potassium channel subunit beta-2 (Rattus norvegicus)
Experiment: enhancers of rat Kvbeta2 NADPH turnover – biochemical, NADPH fluorescence, primary screen (AID 623);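 note: fluorescence intensity change per second fitted from 20 to 320 s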
Settings: Recombinant KvBeta, NADPH fluorescence decrease slope, 10 min; at 10 µM
Calls of active or inactive are those of the source.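 The calls were made as follows: active = NADPH fluorescence slope more negative than the mean of all samples by about 3 SD, 99.7% confidence; inactive = the rest.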
Mark one answer only. Choices: Y for active, N for inactive

What call does the record list for Clc1ccc(COC(Cn2ccnc2)c2ccc(Cl)cc2Cl)c(Cl)c1 (configuration not stated) ?
N

What call does the record list for CC1CN=C(Nc2ccc(N(C)C)cc2)S1 (configuration not stated) ?
N

What call does the record list for "CNP1(NC)=NC(C(F)(F)F)=NC(C(F)(F)F)=N1" ?
N

What call does the record list for "COc1ccc(N2CCN(CCCN)CC2)cc1" ?
N

What call does the record list for "Cn1c(C(=O)N2CCC3(CC2)OCCO3)cc2c(=O)n(C)c3ccccc3c21" ?
N

What call does the record list for "O=C(Cn1c2c(c(-c3ccccc3Cl)cc1=O)CCC2)N1CCC2(CC1)OCCO2" ?
N

What call does the record list for "c1ccc2c3c([nH]c2c1)CNCC3" ?
N

What call does the record list for CCCCCCC(N)CC(=O)O (configuration not stated) ?
N

What call does the record list for COc1ccc(OC)c(C(O)C(C)N)c1 (configuration not stated) ?
N

What call does the record list for CC1CCN2c3nc4ccccn4c(=O)c3CC3(C(=O)N(C)C(=O)N(C)C3=O)C2C1 (configuration not stated) ?
N

What call does the record list for "COc1ccc(CN2CCN(c3ccccc3F)CC2)c(OC)c1" ?
N

What call does the record list for "O=c1c2ccccc2[se]n1-c1ccccc1" ?
Y

---

Assay: inhibitors of TNFa-induced NFkB p65 translocation, primary screen, imaging, HUVEC, MLSMR starter and 10KST1 sets (AID 438);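 note: compound added about 3h40 before a 20 min TNFalpha stimulation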
Conditions: HUVEC TNFa-induced p65 nuclear translocation; measured here: nuclei count (cytotoxicity indicator), at 2.08 µM
recorded-metric: cell count
Give a plain numeric answer without units written out.

Per the record, "Cc1ccc(C)c(NC2=NCCCS2)c1" has cell count of 304

Per the record, OC(CNC1CCCCC1)c1ccccc1 (configuration not stated) has cell count of 317

Per the record, "COc1ccc(N2CCN(CCCN)CC2)cc1" has cell count of 356

Per the record, "Cn1c(O)c(C=NC2CCN(Cc3ccccc3)CC2)c(=O)n(C)c1=O" has cell count of 440

Per the record, "NC(=O)OCCSc1nnc(-c2cccc(C(N)=S)c2)o1" has cell count of 330

Per the record, "C=CCOC(=O)C1=C(C)OC(N)=C(C#N)[C@@]12C(=O)N(CC(N)=O)c1ccccc12" has cell count of 473

Per the record, "COc1ccccc1CN1CCN(C(=O)Cc2ccccc2)CC1" has cell count of 466

Per the record, "Cc1ccccc1NC1=NCCCS1" has cell count of 457

Per the record, OCC12COC3c4ccccc4C(OC1)N32 (configuration not stated) has cell count of 478

Per the record, CC1=NOC2(C)Nc3ncnn3C(c3ccccc3)C12 (configuration not stated) has cell count of 604

Per the record, CCC(C(=O)N1CCC2(CC1)OCCO2)c1ccccc1 (configuration not stated) has cell count of 391

Per the record, "COc1ccc(CCn2c(O)c(C=NCCCN(C)C)c(=O)[nH]c2=O)cc1OC" has cell count of 338
